Where these numbers come from: PubChem BioAssay AID1159580

This listing pairs compounds with measured normalized growth.
assay: chemical genetic growth profiling, strain panel (AID 1159580);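 note: tested at 20 µM; growth read once vehicle control cultures reached saturation at 30 °C; 1 = growth at the plate median or of vehicle wells; lower values mean less growth of the strain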; details: S. cerevisiae deletion strains, growth OD, locus YGR252W, strain gcn5, active compounds read low
Out of some 5,500 compounds screened, about 2,000 (36%) were called active. Another 18% or so got no clear call; they are omitted. The list shows a part of the results.
Simply state the number, no unit and no words.

Use the examples below as a reference point.
compound	value-measured
COc1cc2c(cc1OC)C1Cc3ccc(OC)c(OC)c3CN1CC2 (centres undefined)	1.01
CCCCOC(=O)c1ccc(N)cc1	0.743
CCN(CC)CCOC(=O)c1ccc(N)cc1	0.998

Lab note: next compound to report on.
Query string: Give reported normalized growth value for CCCCNc1ccc(C(=O)OCCN(C)C)cc1
Result string: 0.915
